Values were extracted from paper PMC6695355.

system: C. albicans ATCC 10231 biofilm formation; format: cell-based, Candida albicans; conditions: ATCC 10231, 24 h
Where a SMILES comes first, the peptide text is derived from it.
MEASURED PROPERTY: MBIC, C. albicans ATCC 10231 (µg/mL)

COMPOUND | MEASURED PROPERTY | READOUT NUMBER
CC[C@H](C)[C@H](NC(=O)[C@H](CC(=O)O)NC(=O)[C@H](Cc1ccccc1)NC(=O)[C@H](CC(C)C)NC(=O)CN)C(=O)N[C@H](C(=O)N[C@@H](CCCCN)C(=O)N[C@@H](CCCCN)C(=O)N[C@@H](C)C(=O)N[C@@H](C)C(=O)N[C@@H](CCC(=O)O)C(=O)N[C@@H](CO)C(=O)N[C@@H](Cc1ccccc1)C(N)=O)[C@@H](C)CC [Peptide I9A] (H-GLFDIIKKAAESF-NH2) | MBIC, C. albicans ATCC 10231 | 16
CC[C@H](C)[C@H](NC(=O)[C@H](CCCCN)NC(=O)[C@H](CCCCN)NC(=O)[C@H](C)NC(=O)[C@@H](NC(=O)[C@H](CC(=O)O)NC(=O)[C@H](Cc1ccccc1)NC(=O)[C@H](CC(C)C)NC(=O)CN)[C@@H](C)CC)C(=O)N[C@@H](C)C(=O)N[C@@H](CCC(=O)O)C(=O)N[C@@H](CO)C(=O)N[C@@H](Cc1ccccc1)C(N)=O [Peptide I6A] (H-GLFDIAKKIAESF-NH2) | MBIC, C. albicans ATCC 10231 | 4
CC[C@H](C)[C@H](NC(=O)[C@H](CCCCN)NC(=O)[C@H](CCCCN)NC(=O)[C@@H](NC(=O)[C@@H](NC(=O)[C@H](CC(=O)O)NC(=O)[C@H](C)NC(=O)[C@H](CC(C)C)NC(=O)CN)[C@@H](C)CC)[C@@H](C)CC)C(=O)N[C@@H](C)C(=O)N[C@@H](CCC(=O)O)C(=O)N[C@@H](CO)C(=O)N[C@@H](Cc1ccccc1)C(N)=O [Peptide F3A] (H-GLADIIKKIAESF-NH2) | MBIC, C. albicans ATCC 10231 | 4
CC[C@H](C)[C@H](NC(=O)[C@H](CCCCN)NC(=O)[C@H](CCCCN)NC(=O)[C@@H](NC(=O)[C@@H](NC(=O)[C@H](CC(=O)O)NC(=O)[C@H](Cc1ccccc1)NC(=O)[C@H](CC(C)C)NC(=O)CN)[C@@H](C)CC)[C@@H](C)CC)C(=O)N[C@@H](C)C(=O)N[C@@H](CCC(=O)O)C(=O)N[C@@H](CO)C(=O)N[C@@H](C)C(N)=O [Peptide F13A] (H-GLFDIIKKIAESA-NH2) | MBIC, C. albicans ATCC 10231 | 8
CC[C@H](C)[C@H](NC(=O)[C@H](CCCCN)NC(=O)[C@H](CCCCN)NC(=O)[C@@H](NC(=O)[C@@H](NC(=O)[C@H](CC(=O)O)NC(=O)[C@H](Cc1ccccc1)NC(=O)[C@H](C)NC(=O)CN)[C@@H](C)CC)[C@@H](C)CC)C(=O)N[C@@H](C)C(=O)N[C@@H](CCC(=O)O)C(=O)N[C@@H](CO)C(=O)N[C@@H](Cc1ccccc1)C(N)=O [Peptide L2A] (H-GAFDIIKKIAESF-NH2) | MBIC, C. albicans ATCC 10231 | 8
CC[C@H](C)[C@H](NC(=O)[C@H](CCCCN)NC(=O)[C@H](C)NC(=O)[C@@H](NC(=O)[C@@H](NC(=O)[C@H](CC(=O)O)NC(=O)[C@H](Cc1ccccc1)NC(=O)[C@H](CC(C)C)NC(=O)CN)[C@@H](C)CC)[C@@H](C)CC)C(=O)N[C@@H](C)C(=O)N[C@@H](CCC(=O)O)C(=O)N[C@@H](CO)C(=O)N[C@@H](Cc1ccccc1)C(N)=O [Peptide K7A] (H-GLFDIIAKIAESF-NH2) | MBIC, C. albicans ATCC 10231 | 4

---

Examples of compounds with documented MBEC, E. faecalis PCM 2673 follow.
Test system: E. faecalis PCM 2673 biofilm
Assay type: cell-based, Enterococcus faecalis
Conditions: 24 h
Protocol: The minimum inhibitory concentrations (MICs) of test compounds were assessed by broth microdilution method on 96-well plates, according to the guidelines of Clinical and Laboratory Standards Institute (CLSI). […] Minimum biofilm eradication concentrations (MBECs) were determined using a previously described protocol. […] The MBEC was read after 1 h. Additionally, anti-adhesive properties of the compounds were also analyzed. […]
Where a SMILES comes first, the peptide text is derived from it.

COMPOUND | MEASURED ON | MBEC, E. faecalis PCM 2673
CC[C@H](C)[C@H](NC(=O)[C@H](CCCCN)NC(=O)[C@H](CCCCN)NC(=O)[C@@H](NC(=O)[C@@H](NC(=O)[C@H](CC(=O)O)NC(=O)[C@H](Cc1ccccc1)NC(=O)[C@H](CC(C)C)NC(=O)CN)[C@@H](C)CC)[C@@H](C)CC)C(=O)N[C@@H](C)C(=O)N[C@@H](CCC(=O)O)C(=O)N[C@@H](CO)C(=O)N[C@@H](C)C(N)=O [Peptide F13A] (H-GLFDIIKKIAESA-NH2) | E. faecalis PCM 2673 biofilm | > 512 µg/mL
CC[C@H](C)[C@H](NC(=O)[C@H](CCCCN)NC(=O)[C@H](CCCCN)NC(=O)[C@@H](NC(=O)[C@@H](NC(=O)[C@H](CC(=O)O)NC(=O)[C@H](Cc1ccccc1)NC(=O)[C@H](CC(C)C)NC(=O)[C@H](C)N)[C@@H](C)CC)[C@@H](C)CC)C(=O)N[C@@H](C)C(=O)N[C@@H](CCC(=O)O)C(=O)N[C@@H](CO)C(=O)N[C@@H](Cc1ccccc1)C(N)=O [Peptide G1A] (H-ALFDIIKKIAESF-NH2) | E. faecalis PCM 2673 biofilm | > 512 µg/mL
CC[C@H](C)[C@H](NC(=O)[C@H](CCCCN)NC(=O)[C@H](CCCCN)NC(=O)[C@@H](NC(=O)[C@@H](NC(=O)[C@H](CC(=O)O)NC(=O)[C@H](Cc1ccccc1)NC(=O)[C@H](CC(C)C)NC(=O)CN)[C@@H](C)CC)[C@@H](C)CC)C(=O)N[C@@H](C)C(=O)N[C@@H](CCC(=O)O)C(=O)N[C@@H](CO)C(=O)N[C@@H](Cc1ccccc1)C(N)=O [aurein 1.2] (H-GLFDIIKKIAESF-NH2) | E. faecalis PCM 2673 biofilm | > 512 µg/mL
